TGI: recorded values
Test system: SN12C renal
Test: NCI tumour cell line growth inhibition, 48 h

Guide cases for TGI, answers given:
Compound	TGI
N#CC(C#N)=Cc1c[nH]c(=O)[nH]c1=O	> 100 µM
CCCCCCCCCCCCCC(=O)NCO	> 100 µM
COc1ccc(/C(Cl)=C(\CN(C)C)c2ccc(OC)c(OC)c2)cc1OC	> 100 µM

Which TGI is listed for CC(=O)Oc1cc(C(C)C)c(OCCN(C)C)cc1C ? > 100 µM

Would you kindly repeat that for Cc1oc2c(C(=O)N/N=C\c3ccc(O)cc3O)c[nH]c2c1C ? > 48.4 µM

Would you kindly repeat that for Cc1csc2nc(-c3ccncc3)cn12 ? > 100 µM

Would you kindly repeat that for CCOC(=O)N1CCN(P(=O)(Nc2ccc3nc(NC(=O)OC)[nH]c3c2)Oc2ccccc2)CC1 (stereo unspecified) ? > 100 µM

Would you kindly repeat that for O=C(c1ccccc1)c1ccc2cccc(OC3OC(CO)C(O)C(O)C3O)c2n1 (stereo unspecified) ? > 100 µM

Would you kindly repeat that for O=C(NC(=S)Nc1ccc2c(c1)Sc1ccccc1O2)c1ccccc1 ? > 100 µM

Would you kindly repeat that for Cc1nc2cc(-c3nn(C(C)C)c4ncnc(N)c34)ccc2o1 ? > 10 µM

Would you kindly repeat that for COc1cc2c(cc1OCCCN1CCN(C)CC1)N=C[C@@H]1CCCN1C2=O ? > 100 µM

====

Tested on: NCI-H522 lung
Experiment: NCI tumour cell line growth inhibition, 48 h
Tag: class 1 if measured TGI is not below 30 µM, class 0 if it is.

Answered examples (2):
Compound	Category
COc1cccc2c1O/C(=C\c1ncc([N+](=O)[O-])n1C)C2=O	class 0
CC1(C)CC[C@]2(C(=O)Nc3ccccn3)CC[C@]3(C)C(=CC[C@@H]4[C@@]5(C)C/C(=C/c6ccncc6)C(=O)C(C)(C)[C@@H]5CC[C@]43C)[C@@H]2C1	class 0

Is reported TGI greater than or equal to 30 µM here: S=C(Nc1ccccc1)c1ccc(CN2CCCCC2)s1 class 1

Would you kindly repeat that for Cc1[nH]c(=O)nc2nc3ccc(Cl)cc3c(N(CCO)CCO)c12 ? class 1

Would you kindly repeat that for O=S(=O)(O)c1cc(S(=O)(=O)O)c2c(Nc3ccnc4ccccc34)ccc(S(=O)(=O)O)c2c1 ? class 1

Would you kindly repeat that for C=CCCCCNC(=O)C[C@@H]1C2=C(CC[C@H]1O[Si](C)(C)C(C)(C)C)N1C(=O)CCC/C=C\C1C2 (stereo partly specified) ? class 0

Would you kindly repeat that for N#CC(C#N)=C1NN=C(Cl)c2ccccc21 ? class 1

====

Test system: NCI-H522 lung
Assay: NCI tumour cell line growth inhibition, 48 h
Where a SMILES comes first, the peptide text is derived from it. [ ]: non-standard residue; d: D form. The star is where a group is joined. ξ: configuration not given here. NMeF = CN[C@@H](Cc1ccccc1)C(=O)O; NMeV = CN[C@H](C(=O)O)C(C)C; ξNMeN = CNC(CC(N)=O)C(=O)O; NMeA = CN[C@@H](C)C(=O)O; ξNMeV = CNC(C(=O)O)C(C)C; Boc = CC(C)(C)OC(=O)*
Quantity Name: TGI

Compound	Measured Value
Cc1ccc(C2=NN(c3ccc(S(C)(=O)=O)cc3)C(=O)CC2)cc1	1.04 µM
COC(=O)[C@H](C)N(C)C(=O)C(CC(N)=O)N(C)C(=O)[C@H](Cc1ccccc1)N(C)C(=O)[C@@H]1CCCN1C(=O)[C@H](C(C)C)N(C)C(=O)C(C(C)C)N(C)C(=O)[C@@H](NC(=O)OC(C)(C)C)C(C)C (some centres undefined) (Boc-V[ξNMeV][NMeV]P[NMeF][ξNMeN][NMeA]-OMe)	> 75 µM
COC(=O)/C=C1/SC(=Nc2ccc(F)cc2)N(CCc2c[nH]c3ccc(O)cc23)C1=O	> 100 µM

Which TGI is listed for COc1cc(C(=O)N(C)N(C)C)cc(OC)c1OC ? > 10 µM
